# Tested on: MDA-MB-435
# test-protocol: NCI tumour cell line growth inhibition, 48 h
Activity calls are given as the source filed them. Cut-off read from the data, not from the text of the source: active = GI50 up to about 1.1 µM and inactive = higher.

compound | GI50
CN(C)Cc1cc(C(C)(C)C)cc(CNC2CCCCC2)c1O | 65.9 µM (inactive)
O=C(O)c1cccc(S(=O)(=O)NN2C(=O)CSC2c2c(O)ccc3ccccc23)c1 (centres undefined) | 37.6 µM (inactive)
O=C(O)c1ccccc1CC(Cc1ccc2c(c1)CCC2)C(=O)O (centres undefined) | > 100 µM (inactive)
Cc1ccc(SC[C@@]2(C(F)F)NC(=O)NC2=O)cc1 | > 100 µM (inactive)

---

In this section we review reported GI50 values for a set of compounds.
# System: MDA-MB-435
# test-protocol: NCI tumour cell line growth inhibition, 48 h
The source made the active and inactive calls. No stated cut-off is given here; in the data, active = GI50 up to about 1.1 µM and inactive = higher.
test-readout: GI50

compound | value-measured
COc1cc(S(=O)(=O)Nc2ccc(-c3csc(N4C(=O)CSC4c4ccccc4)n3)cc2)ccc1Cl (stereo not given) | 43.1 µM (inactive)
CCOC(=O)Cc1nn2c(=O)cc(C)nc2s1 | > 100 µM (inactive)
CC1(C)C(CCO)CC1n1ccc(=O)[nH]c1=O (stereo not given) | > 100 µM (inactive)
C=CCn1c(-c2ccc(Cl)cc2)cs/c1=N\c1ccccc1OC | 5.06 µM (inactive)
COc1ccc2c(c1)CC[C@@H]1[C@@H]2CC[C@]2(C)[C@@H](O)/C(=C/c3ccncc3)C[C@@H]12 | 9.77 µM (inactive)

---

In this section we review reported GI50 values for a set of compounds.
# System: DLD-1
# test-protocol: NCI tumour cell line growth inhibition, 48 h
Activity calls are given as the source filed them. Cut-off read from the data, not from the text of the source: active = GI50 up to about 1.1 µM and inactive = higher.

compound | system-name | GI50
CC(=O)O[C@H]1CC[C@@]2(C)C(=CC[C@H]3C4=CC=C(C(C)=O)[C@@]4(C)CCC32)C1 (stereo partly specified) | DLD-1 | 37.8 µM (inactive)
CC1(C)CC(/C=C2/OC(=O)c3ccccc32)=C(C(N)=O)C(=O)O1 | DLD-1 | > 100 µM (inactive)
N#CC(C#N)=c1ccc(=C2N3CCCC3CN2C23CC4CC(CC(C4)C2)C3)cc1 (stereo unspecified) | DLD-1 | > 100 µM (inactive)
OCC(O)COc1ccc(F)cc1 (stereo unspecified) | DLD-1 | > 100 µM (inactive)
C[S+]=c1sc2ccccc2s1 | DLD-1 | > 100 µM (inactive)
COC1(OC)C2(Cl)C(Cl)=C(Cl)C1(Cl)C1C=CC=CC12 (stereo unspecified) | DLD-1 | 67.5 µM (inactive)
CCC12C=C(C(=O)OC)N3c4ccccc4C4CCN(CCC1)C2C43 (stereo unspecified) | DLD-1 | 66.7 µM (inactive)
O=C(CC1Sc2ccccc2NC1=O)Nc1ccc([N+](=O)[O-])cc1[N+](=O)[O-] (stereo unspecified) | DLD-1 | 15.3 µM (inactive)
Nc1cccc(C(=O)/C=C/c2ccccc2O)c1 | DLD-1 | > 100 µM (inactive)
CCOC(=O)N1C(c2ccccc2)C=CC(c2ccccc2)N1C(=O)OCC (stereo unspecified) | DLD-1 | > 100 µM (inactive)
CC(=O)Nc1cccc(/N=N/N(C)C)c1 | DLD-1 | > 31.6 µM (inactive)

---

# Test system: HCT-15
test-readout: GI50

compound | system-name | test-readout | value-measured
Nc1ncnc2c1ncn2C1OC(CSCC(F)(F)F)C(O)C1O (configuration not stated) | HCT-15 | GI50 | > 100 µM
CSCCC(NC(=O)C(Cc1ccccc1)NC(=O)CNC(=O)CNC(=O)C(N)Cc1ccc(O)cc1)C(=O)O (configuration not stated) | HCT-15 | GI50 | > 100 µM
NNC(=O)CSc1nc2ccc(I)cc2c(=O)n1Cc1ccccc1 | HCT-15 | GI50 | 36.6 µM
CN1C(=O)C(=Cc2ccc(Br)cc2)C(=O)N(C)C1=O | HCT-15 | GI50 | > 100 µM
CC(=O)OCC1=C(C(=O)O)C(c2ccc3c(c2)OCO3)c2cc3c(cc2O1)OCO3 (configuration not stated) | HCT-15 | GI50 | > 100 µM
Cc1cc2c(cc1Cl)S(=O)(=O)OC(c1ccc([N+](=O)[O-])cc1)=N2 | HCT-15 | GI50 | > 100 µM
CC1=N/C(=C\c2cccc3ccccc23)C(=O)O1 | HCT-15 | GI50 | > 100 µM
Cc1cc2c(cc1Cl)SC(c1ccccc1)C(=O)NS2(=O)=O (configuration not stated) | HCT-15 | GI50 | 25 µM
CCCC(O)C(NC(=O)CCl)C(=O)O (configuration not stated) | HCT-15 | GI50 | > 100 µM
[N-]=[N+]=Nc1ccc2c(c1)Sc1ccccc1N2CCCCN1CCN(Cc2ccc(C(=O)c3ccccc3)cc2)CC1 | HCT-15 | GI50 | 3.47 µM
COc1cc(S(=O)(=O)Nc2ccc(-c3csc(N4C(=O)CSC4c4ccccc4)n3)cc2)ccc1Cl (configuration not stated) | HCT-15 | GI50 | > 100 µM
CCc1nnc(S)n1/N=C\c1ccc(-c2ccccc2Cl)o1 | HCT-15 | GI50 | 28.2 µM
CN1CCN(CC(=O)Nc2cccc3ccccc23)CC1 | HCT-15 | GI50 | > 100 µM
COc1ccc(OC)c(C2CCc3c(cnc4nc(N)nc(N)c34)C2)c1 (configuration not stated) | HCT-15 | GI50 | 5.42 µM
COc1ccc(OC(C)C(=O)O)c2c(=O)ccccc12 (configuration not stated) | HCT-15 | GI50 | > 100 µM
O=C(NCCc1ccccc1)C1C(=O)C(=O)N(CCc2ccccc2)C1=O (configuration not stated) | HCT-15 | GI50 | > 100 µM
COc1ccc(C[C@H](N)C(=O)N2C[C@@H](CO)C[C@@H](n3ccc(=O)[nH]c3=O)C2)cc1 | HCT-15 | GI50 | > 100 µM

---

# System: SR
# test-protocol: NCI tumour cell line growth inhibition, 48 h
Calls of active or inactive are those of the source. No stated cut-off is given here; in the data, active = GI50 up to about 1.1 µM and inactive = higher.
test-readout: GI50

compound | test-readout | value-measured
COc1ccc(NC(S)=Nc2cccc(C)n2)cc1 | GI50 | > 100 µM (inactive)
CN(C)C(=S)/N=c1\ss/c(=N\S(=O)(=O)c2ccccc2)n1C | GI50 | > 100 µM (inactive)
COc1cc([C@@H]2c3cc4c(cc3[C@@H](/N=C/c3ccc(C(=O)O[C@@H](C(=O)O[C@H]5C[C@@]6(O)[C@@H](OC(=O)c7ccccc7)[C@@H]7[C@]8(OC(C)=O)CO[C@@H]8C[C@H](O)[C@@]7(C)C(=O)[C@H](OC(C)=O)C(=C5C)C6(C)C)[C@@H](NC(=O)c5ccccc5)c5ccccc5)cc3)[C@H]3COC(=O)[C@H]23)OCO4)cc(OC)c1O | GI50 | < 0.005 µM (active)
CN1C(=O)c2ccccc2OC12C=Cc1c(ccc3ccccc13)O2 (centres undefined) | GI50 | 3.48 µM (inactive)
Cc1nc(O)nc(N/N=C/c2ccc(Cl)c(Cl)c2)c1C(=O)Nc1ccc(Cl)c(Cl)c1 | GI50 | 36.3 µM (inactive)
CN1C(=O)C2C3C=C4c5ccccc5N(c5ccccc5)C4(C2C1=O)[C@H]1C(=O)N(C)C(=O)[C@@H]31 (some centres undefined) | GI50 | > 100 µM (inactive)
CCOC(=O)NC | GI50 | > 100 µM (inactive)
OCc1cc2c(ccc3sc4ccc5sc6ccc7ncccc7c6c5c4c32)s1 | GI50 | 10.5 µM (inactive)
O=C(O)C12C3C4(C(=O)O)C1C1(C(=O)O)C2C3(C(=O)O)C41 (centres undefined) | GI50 | > 100 µM (inactive)

---

# Test system: OVCAR-8
# test-protocol: NCI tumour cell line growth inhibition, 48 h
Activity calls are given as the source filed them. No stated cut-off is given here; in the data, active = GI50 up to about 1.1 µM and inactive = higher.
Labels: active, inactive

molecule | system-name | assigned-category
Cc1ccc(C(=O)NC2C(=O)NC(C(C)C)C(=O)N3CCCC3C(=O)N(C)CC(=O)N(C)C(C(C)C)C(=O)OC2C)c2c1Oc1c(c(C(=O)NC3C(=O)NC(C(C)C)C(=O)N4CCCC4C(=O)N(C)CC(=O)N(C)C(C(C)C)C(=O)OC3C)c3nc(-c4ccccc4)c(=O)oc3c1C)N2 (configuration not stated) | OVCAR-8 | active
CN(C)CCNC(=O)c1cccc2nc3cc(Cl)ccc3nc12 | OVCAR-8 | inactive
CN(C)CCCNc1ccc2ncn3c4ccc(O)cc4c(=O)c1c23 | OVCAR-8 | active
Cc1nc(C)c(N2CCN(C(=O)NC(CCC(=O)O)C(=O)O)CC2)c(O)n1 (configuration not stated) | OVCAR-8 | inactive
Nc1nc(Cl)cc(NCC2(O)CC(CO)C2)n1 (configuration not stated) | OVCAR-8 | inactive
C[C@H]1C[C@H](C)c2ccccc2N(C)/C1=N\c1ccccc1 | OVCAR-8 | inactive
COc1cc([C@@H]2c3cc4c(cc3[C@@H](c3c(O)cc(O)c5c3O[C@H](c3ccc(O)c(O)c3)[C@H](OC(=O)c3cc(O)c(O)c(O)c3)C5)[C@H]3COC(=O)[C@H]23)OCO4)cc(OC)c1OC | OVCAR-8 | inactive
